Biological target: Adenosine receptor A1 (Rattus norvegicus)
Sequence (P25099 whole entry): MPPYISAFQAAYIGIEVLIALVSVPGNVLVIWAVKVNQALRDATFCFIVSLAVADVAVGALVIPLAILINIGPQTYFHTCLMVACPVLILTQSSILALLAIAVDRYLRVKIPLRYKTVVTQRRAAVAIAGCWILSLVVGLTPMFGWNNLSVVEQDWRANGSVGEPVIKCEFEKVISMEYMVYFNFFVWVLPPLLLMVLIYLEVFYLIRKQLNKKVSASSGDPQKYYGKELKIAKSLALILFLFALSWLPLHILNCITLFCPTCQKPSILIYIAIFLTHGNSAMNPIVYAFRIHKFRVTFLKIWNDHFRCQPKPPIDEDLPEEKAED
pKi: −log10 of the molar value.
Observed Property: pKi

Observe how each entry below is paired with its result.
Smiles Structure	pKi
CCSCCn1c(=O)c2c(nc(Cc3cccs3)n2C)n(Cc2ccco2)c1=O	7.05
Cn1c(=O)c2c(nc(Cc3ccco3)n2C)n(Cc2ccco2)c1=O	6.28
Cn1c(Cc2c(F)cccc2F)nc2c1c(=O)n(CC1CC1)c(=O)n2Cc1ccco1	6.92

A = C#CCn1c(=O)c2[nH]c(Cc3c(F)cccc3F)nc2n(Cc2ccco2)c1=O
B = CCn1c(=O)c2c(nc(Cc3ccco3)n2C)n(Cc2ccco2)c1=O
Prompt: Dear colleague, could you let me know whether A or B has the lower recorded pKi? Thanks. Kindly state the label of the option you pick.
Completion: A
(A: 6.36, B: 6.97)

###

Reported pKi values, Adenosine receptor A2b (Homo sapiens).
pKi: −log10 of the molar value.
Observed Property: pKi

Smiles Structure	Experimental Target	Observed Property	Obs Value
Cn1c(Cc2c(F)cccc2F)nc2c1c(=O)n(CC1CC1)c(=O)n2Cc1ccco1	Adenosine receptor A2b (Homo sapiens)	pKi	7.33
CCn1c(=O)c2[nH]c(Cc3cccs3)nc2n(Cc2ccco2)c1=O	Adenosine receptor A2b (Homo sapiens)	pKi	6.92
CCSCCn1c(=O)c2[nH]c(Cc3ccco3)nc2n(Cc2ccco2)c1=O	Adenosine receptor A2b (Homo sapiens)	pKi	6.19

A = Cn1c(=O)c2c(nc(Cc3ccco3)n2C)n(Cc2ccco2)c1=O
B = CCCn1c(=O)c2c(nc(Cc3cccs3)n2C)n(Cc2ccco2)c1=O
Prompt: So which one has the bigger pKi here, A or B ? Kindly state the label of the option you pick.
Completion: B
(B: 7.83, A: 7.49)

###

biological target: Adenosine receptor A3 (Homo sapiens); assay: Displacement of [3H]NECA from human recombinant adenosine A3 receptor expressed in HeLa cells at 1 uM; format: cell-based
Observed Property: Activity (%)

Observe how each entry below is paired with its result.
Compound	Observed Property	Obs Value
C=CCn1c(=O)c2[nH]c(Cc3cccs3)nc2n(Cc2ccco2)c1=O	Activity	4
CCCn1c(=O)c2c(nc(Cc3ccco3)n2C)n(Cc2ccco2)c1=O	Activity	41
CCCn1c(=O)c2[nH]c(Cc3cccs3)nc2n(Cc2ccco2)c1=O	Activity	2
COCCn1c(=O)c2c(nc(Cc3c(F)cccc3F)n2C)n(Cc2ccco2)c1=O	Activity	1
Cn1c(=O)c2[nH]c(Cc3ccco3)nc2n(Cc2ccco2)c1=O	Activity	6
CCn1c(=O)c2c(nc(Cc3ccccc3)n2C)n(Cc2ccco2)c1=O	Activity	16

a = CCCn1c(=O)c2c(nc(Cc3ccccc3)n2C)n(Cc2ccco2)c1=O
b = Cn1c(Cc2c(F)cccc2F)nc2c1c(=O)n(CC1CC1)c(=O)n2Cc1ccco1
c = CCn1c(=O)c2c(nc(Cc3ccco3)n2C)n(Cc2ccco2)c1=O
d = CCn1c(=O)c2[nH]c(Cc3ccco3)nc2n(Cc2ccco2)c1=O
e = CCCn1c(=O)c2[nH]c(Cc3ccco3)nc2n(Cc2ccco2)c1=O
Prompt: Task field, ranking: reported Activity, descending order. # list labels per requested ordering
Completion: a, d, c, e, b
(a: 41%, d: 18%, c: 11%, e: 3%, b: 1%)

A = CSCCn1c(=O)c2[nH]c(Cc3cccs3)nc2n(Cc2ccco2)c1=O
B = CCn1c(=O)c2c(nc(Cc3cccs3)n2C)n(Cc2ccco2)c1=O
C = C=CCn1c(=O)c2[nH]c(Cc3c(F)cccc3F)nc2n(Cc2ccco2)c1=O
D = COCCn1c(=O)c2[nH]c(Cc3cccs3)nc2n(Cc2ccco2)c1=O
E = C=CCn1c(=O)c2c(nc(Cc3c(F)cccc3F)n2C)n(Cc2ccco2)c1=O
Prompt: Task field, ranking: reported Activity, descending order. # list labels per requested ordering
Completion: E, A, B, D, C
(E: 23%, A: 8%, B: 5%, D: 2%, C: 1%)

a = CCSCCn1c(=O)c2[nH]c(Cc3ccco3)nc2n(Cc2ccco2)c1=O
b = CCCn1c(=O)c2[nH]c(Cc3ccccc3)nc2n(Cc2ccco2)c1=O
Prompt: So which one has the bigger Activity here, a or b ? Kindly state the label of the option you pick.
Completion: b
(b: 9%, a: 4%)

P = CC(C)Cn1c(=O)c2[nH]c(Cc3ccccc3)nc2n(Cc2ccco2)c1=O
Q = CCn1c(=O)c2[nH]c(Cc3ccccc3)nc2n(Cc2ccco2)c1=O
Prompt: Dear colleague, could you let me know whether P or Q has the lower recorded Activity? Thanks. Kindly state the label of the option you pick.
Completion: Q

1 = CCCCCn1c(=O)c2[nH]c(Cc3cccs3)nc2n(Cc2ccco2)c1=O
2 = C#CCn1c(=O)c2[nH]c(Cc3c(F)cccc3F)nc2n(Cc2ccco2)c1=O
3 = CCSCCn1c(=O)c2c(nc(Cc3cccs3)n2C)n(Cc2ccco2)c1=O
4 = O=c1c2[nH]c(Cc3cccs3)nc2n(Cc2ccco2)c(=O)n1CC1CC1
5 = CCS(=O)(=O)CCn1c(=O)c2[nH]c(Cc3ccccc3)nc2n(Cc2ccco2)c1=O
Prompt: Task field, ranking: reported Activity, descending order. # list labels per requested ordering
Completion: 3, 4, 1, 2, 5
(3: 52%, 4: 21%, 1: 11%, 2: 5%, 5: 1%)

I = Cn1c(=O)c2c(nc(Cc3ccco3)n2C)n(Cc2ccco2)c1=O
II = CCSCCn1c(=O)c2[nH]c(Cc3cccs3)nc2n(Cc2ccco2)c1=O
Prompt: Dear colleague, could you let me know whether I or II has the lower recorded Activity? Thanks. Kindly state the label of the option you pick.
Completion: II

a = C#CCn1c(=O)c2[nH]c(Cc3cccs3)nc2n(Cc2ccco2)c1=O
b = COCCn1c(=O)c2[nH]c(Cc3ccccc3)nc2n(Cc2ccco2)c1=O
Prompt: So which one has the bigger Activity here, a or b ? Kindly state the label of the option you pick.
Completion: a
(a: 11%, b: 5%)

A = C=CCn1c(=O)c2c(nc(Cc3cccs3)n2C)n(Cc2ccco2)c1=O
B = COCCn1c(=O)c2[nH]c(Cc3c(F)cccc3F)nc2n(Cc2ccco2)c1=O
C = CSCCn1c(=O)c2[nH]c(Cc3c(F)cccc3F)nc2n(Cc2ccco2)c1=O
D = Cn1c(Cc2cccs2)nc2c1c(=O)n(CC1CC1)c(=O)n2Cc1ccco1
Prompt: Put the items in order so that reported Activity rises from first to last. # list labels per requested ordering
Completion: C, B, A, D
